System: Rattus norvegicus
Experiment: Compound was evaluated in experiment 1 for Total cholesterol at 10 (mg/kg) dose
Assay type: functional
Design: unit not given beside the values
Recorded TC, one value per entry.

[[record]]
compound = "CC(C)c1cccc(C(C)C)c1NC(=O)NCC1(c2cccc(CN3CCOCC3)c2)CCCC1"
result = 118

[[record]]
compound = "CCCCN(CCCC)Cc1cccc(C2(CNC(=O)Nc3c(C(C)C)cccc3C(C)C)CCCC2)c1"
result = 302

[[record]]
compound = "CC(C)c1cccc(C(C)C)c1NC(=O)NCC1(c2cccc(CN3CCN(C)CC3)c2)CCCC1"
result = 154


Incoming: Hello, I am looking for reported TC with Rattus norvegicus for CC(C)c1cccc(C(C)C)c1NC(=O)NCC1(c2ccc(N(C)C)cc2)CCCC1.Cl [NEVANIMIBE HYDROCHLORIDE] . Could you help?
Outgoing: 115
